Hey, just so you know, these numbers are from PubChem BioAssay AID1963960.

Test system: MDA-MB-468 spheroids with HUVEC/MSC, viability
Experiment: Anticancer human tumor MDA-MB-468 cell line growth inhibition [PI3K]; active = viability on the fitted dose curve at most 10% of control; inactive = the rest;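 also: spheroids exposed to agents for seven days before readout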
Conditions: second compound 0.1 µM; first compound 0.316 µM
Log the outcome using a class from active, inactive

Request: Test call, this compound: CNC(=O)c1ccc(N2C(=S)N(c3ccc(C#N)c(C(F)(F)F)c3)C(=O)C2(C)C)cc1F + CC(Nc1ncnc2nc[nH]c12)c1cc2cccc(Cl)c2c(=O)n1-c1ccccc1
Result: inactive

Request: Test call, this compound: CC(C)NCC(C(=O)N1CCN(c2ncnc3c2C(C)CC3O)CC1)c1ccc(Cl)cc1 (stereo unspecified) + CC(Nc1ncnc2nc[nH]c12)c1cc2cccc(Cl)c2c(=O)n1-c1ccccc1
Result: inactive

Request: Test call, this compound: CCCS(=O)(=O)Nc1ccc(F)c(C(=O)c2c[nH]c3ncc(-c4ccc(Cl)cc4)cc23)c1F + COc1c(OCCCN2CCOCC2)ccc2c3n(c(=NC(=O)c4cnc(N)nc4)nc12)CCN3
Result: inactive

Request: Test call, this compound: C[C@@H](NC(=O)c1ncnc(N)c1Cl)c1ncc(C(=O)Nc2cc(C(F)(F)F)c(Cl)cn2)s1 + CC(Nc1ncnc2nc[nH]c12)c1cc2cccc(Cl)c2c(=O)n1-c1ccccc1
Result: inactive

Request: Test call, this compound: CC1(C)CCC(Nc2ncc(C(F)(F)F)c(-c3c[nH]c4c(P(C)(C)=O)c(C#N)ccc34)n2)CN1 (stereo unspecified) + COc1c(OCCCN2CCOCC2)ccc2c3n(c(=NC(=O)c4cnc(N)nc4)nc12)CCN3
Result: active

Request: Test call, this compound: CNC(=O)c1ccc(N2C(=S)N(c3ccc(C#N)c(C(F)(F)F)c3)C(=O)C2(C)C)cc1F + Cc1nc(NC(=O)N2CCCC2C(N)=O)sc1-c1ccnc(C(C)(C)C(F)(F)F)c1
Result: inactive

Request: Test call, this compound: CCN1CCN(Cc2ccc(Nc3ncc(F)c(-c4cc(F)c5nc(C)n(C(C)C)c5c4)n3)nc2)CC1 + CC(Nc1ccc2c(c1)OCCn1cc(N3C(=O)OCC3C(F)F)nc1-2)C(N)=O
Result: inactive

Request: Test call, this compound: CCCS(=O)(=O)Nc1ccc(F)c(C(=O)c2c[nH]c3ncc(-c4ccc(Cl)cc4)cc23)c1F + CC(Nc1ncnc2nc[nH]c12)c1cc2cccc(Cl)c2c(=O)n1-c1ccccc1
Result: inactive

Request: Test call, this compound: C[C@@H](NC(=O)c1ncnc(N)c1Cl)c1ncc(C(=O)Nc2cc(C(F)(F)F)c(Cl)cn2)s1 + Cc1nc(NC(=O)N2CCCC2C(N)=O)sc1-c1ccnc(C(C)(C)C(F)(F)F)c1
Result: inactive

Request: Test call, this compound: CC(C)NCC(C(=O)N1CCN(c2ncnc3c2C(C)CC3O)CC1)c1ccc(Cl)cc1 (stereo unspecified) + CC(Nc1ccc2c(c1)OCCn1cc(N3C(=O)OCC3C(F)F)nc1-2)C(N)=O
Result: inactive

Request: Test call, this compound: C=CC(=O)N1CCN(c2nc(=O)n(-c3c(C)ccnc3C(C)C)c3nc(-c4c(O)cccc4F)c(F)cc23)C(C)C1 (stereo unspecified) + Cc1nc(NC(=O)N2CCCC2C(N)=O)sc1-c1ccnc(C(C)(C)C(F)(F)F)c1
Result: inactive
